# experimental.details: fu,cell by equilibrium dialysis of cell homogenate, Caco-2
# Type: in vitro ADME
# details: human, Caco-2 cell homogenate, dialysis 4 h 37°C, 10 million cells/mL homogenate, read-out: fu,Caco-2 Geomean
# Method: fu,cell was measured in cassette-mode as previously described with minor modifications ([9]). […] The concentration in both dialysis chambers was quantified by extracting the compound with acetonitrile/water (60/40) containing internal standard. […] (3), assuming the Vcell to be equal to 6.5 μL/mg protein ([6],[10]). Protein content in the cell homogenates was determined at each experiment using the BCA Protein Assay Reagent Kit (Thermo Fisher Scientific Inc.).3 DP=1/Vcell

>  <molecule>
CCOc1cc(CC(=O)N[C@@H](CC(C)C)c2ccccc2N2CCCCC2)ccc1C(=O)O [Repaglinide]

>  <fraction unbound at 4 h, 0.5 μM>
0.0225

$$$$
>  <molecule>
COC(=O)CCc1ccc(OCC(O)CNC(C)C)cc1 (stereo not shown) [Esmolol]

>  <fraction unbound at 4 h, 0.5 μM>
0.566

$$$$
>  <molecule>
Nc1ccc(/N=N/c2ccccc2)c(N)n1 [Phenazopyridine]

>  <fraction unbound at 4 h, 0.5 μM>
0.0118

$$$$
>  <molecule>
Cc1cccc(C)c1OCC(=O)N[C@@H](Cc1ccccc1)[C@@H](O)C[C@H](Cc1ccccc1)NC(=O)[C@H](C(C)C)N1CCCNC1=O [Lopinavir]

>  <fraction unbound at 4 h, 0.5 μM>
0.0122

$$$$
